System: velvetleaf
experiment-notes: Test C pre-/postemergence herbicide test
Type: in vivo, Abutilon theophrasti
setup-conditions: Postemergence, 31 g ai/ha; scale 0 to 100 (0 no effect, 100 complete control)
Answer each item with its documented Plant response rating, Velvetleaf.
Answers are plain numbers.

{"compound": "O=C1NCC(c2cccc(OC(F)F)c2)C1C(=O)Nc1cccc(F)c1F (stereo not shown) [Compound 224]", "assay-result": 0}
{"compound": "O=C1NCC(c2ccc(F)c(F)c2)C1C(=O)Nc1ccc(F)c(F)c1F (stereo not shown) [Compound 346]", "assay-result": 0}
{"compound": "O=C1NC[C@H](c2cccc(C(F)(F)F)c2)[C@H]1C(=O)Nc1ccccc1F [Compound 204]", "assay-result": 0}

Now consider a different compound.
Consider the compound CN1CC(c2cccc(C(F)(F)F)c2)C(C(=O)Nc2cccc(F)c2F)C1=O (stereo not shown) [Compound 305] . State its measured Plant response rating, Velvetleaf.
10

---

Answer each item with its documented Plant response rating, Ryegrass, Italian.
Test system: ryegrass, Italian
experiment-notes: Test A pre-/postemergence herbicide test
Format: in vivo, Lolium multiflorum
setup-conditions: preemergence; 500 g ai/ha; 0 to 100 scale, 0 is no effect and 100 is complete control
One number for each entry.

Some solved entries appear below for comparison.
{"compound": "O=C1NCC(c2cccc(C(F)F)c2)C1C(=O)Nc1ccccc1F (racemic) [Compound 210]", "assay-result": 50}
{"compound": "O=C1NCC(c2cccc(S(F)(F)(F)(F)F)c2)C1C(=O)Nc1ccccc1F (racemic)", "assay-result": 40}
{"compound": "O=C1NCC(c2ccc3c(c2)OC(F)(F)O3)C1C(=O)Nc1ccc(F)c(F)c1F (racemic)", "assay-result": 50}
{"compound": "Cc1ccccc1NC(=O)C1C(=O)NCC1c1ccc(OC(F)F)cc1 (stereo not shown)", "assay-result": 30}
{"compound": "O=C1NCC(c2ccc(F)cc2)C1C(=O)Nc1ccccc1F (stereo not shown)", "assay-result": 0}
{"compound": "O=C1NCC(c2cccc(OC(F)F)c2)C1C(=O)Nc1ccccc1Br (stereo not shown)", "assay-result": 40}
{"compound": "O=C1NCC(c2cccc(OC(F)F)c2)C1C(=O)Nc1cccc(F)c1F (stereo not shown)", "assay-result": 70}
{"compound": "O=C1NCC(c2cccc3ccccc23)C1C(=O)Nc1ccccc1F (stereo not shown)", "assay-result": 0}
{"compound": "O=C1NCC(c2cccc(C(F)F)c2)C1C(=O)Nc1ccccc1F (racemic) [Compound 163]", "assay-result": 0}

Consider the compound CCCN1CC(c2ccc(C(F)(F)F)cc2)C(C(=O)Nc2ccccc2F)C1=O (stereo not shown) . State its measured Plant response rating, Ryegrass, Italian.
0

---

System: rice
experiment-notes: Test B flooded paddy test
Type: in vivo, Oryza sativa
setup-conditions: 500 g ai/ha, Flood; scale of 0 to 100 where 0 is no effect and 100 is complete control
parameter: Plant response rating, Rice
Give bare numbers.

Some solved entries appear below for comparison.
{"compound": "O=C1NCC(c2ccc(Cl)c(Cl)c2)C1C(=O)Nc1ccc(F)cc1F (racemic)", "Plant response rating, Rice": 0}
{"compound": "CS(=O)(=O)c1ccccc1NC(=O)C1C(=O)NCC1c1cccc(C(F)(F)F)c1 (racemic)", "Plant response rating, Rice": 10}
{"compound": "CCCN1CC(c2ccc(C(F)(F)F)cc2)C(C(=O)Nc2ccccc2F)C1=O (stereo not shown)", "Plant response rating, Rice": 0}

Consider the compound O=C1NCC(c2ccc(C(F)(F)F)cc2)C1C(=O)Nc1cccc(F)c1F (racemic) . State its measured Plant response rating, Rice.
15

---

Test system: foxtail, giant
experiment-notes: Test C pre-/postemergence herbicide test
Format: in vivo, Setaria faberii
setup-conditions: Preemergence, 31 g ai/ha; scale 0 to 100, 0 is no effect and 100 is complete control
Answer each item with its documented Foxtail, Giant plant response rating.
Give bare numbers.

Some solved entries appear below for comparison.
{"compound": "CC(C)c1cccc(C2CNC(=O)C2C(=O)Nc2ccccc2F)c1 (stereo not drawn) [Compound 318]", "experimental-target": "foxtail, giant", "Foxtail, Giant plant response rating": 10}
{"compound": "O=C1NCC(c2cccc(C(F)(F)F)c2)C1C(=O)Nc1ccc(F)c(F)c1F (stereo not drawn) [Compound 345]", "experimental-target": "foxtail, giant", "Foxtail, Giant plant response rating": 85}

Field: Foxtail, Giant plant response rating. Fill in for each record below.
1. O=C1NCC(c2ccc(C(F)(F)F)cc2)C1C(=O)Nc1cccc(F)c1F (stereo not drawn) [Compound 80]
2. CN1CC(c2ccc(F)c(F)c2)C(C(=O)Nc2cccc(F)c2F)C1=O (stereo not drawn) [Compound 303]
3. O=C1NCC(c2ccc(C(F)(F)F)cc2)C1C(=O)Nc1ccccc1F (stereo not drawn) [Compound 79]
4. CN1CC(c2cccc(C(F)(F)F)c2)C(C(=O)Nc2cccc(F)c2F)C1=O (stereo not drawn) [Compound 305]

1: 90; 2: 90; 3: 80; 4: 95

---

Tested on: blackgrass
experiment-notes: Test C pre-/postemergence herbicide test
Type: in vivo, Alopecurus myosuroides
setup-conditions: Preemergence, 62 g ai/ha; scale 0 to 100
parameter: Plant response rating, Blackgrass
Numbers only.

{"compound": "O=C1NCC(c2cccc(OC(F)F)c2)C1C(=O)Nc1cccc(F)c1F (centres unmarked)", "assay-result": 65}
{"compound": "O=C1NCC(c2ccc(Cl)c(Cl)c2)C1C(=O)Nc1ccccc1F (racemic)", "assay-result": 0}
{"compound": "O=C1NC[C@H](c2cccc(C(F)(F)F)c2)[C@H]1C(=O)Nc1ccccc1F", "assay-result": 90}

Field: Plant response rating, Blackgrass. Fill in for each record below.
1. O=C1NCC(c2ccc(F)c(F)c2)C1C(=O)Nc1cccc(F)c1F (racemic)
2. O=C1NCC(c2ccc(F)cc2)C1C(=O)Nc1ccc(F)c(F)c1F (racemic)

[50, 50]

---

Test system: blackgrass
experiment-notes: Test C pre-/postemergence herbicide test
Format: in vivo, Alopecurus myosuroides
setup-conditions: Preemergence, 125 g ai/ha; scale 0 to 100 (0 no effect, 100 complete control)
parameter: Plant response rating, Blackgrass
Give bare numbers.

{"compound": "O=C1NCC(c2ccc(C(F)(F)F)cc2)C1C(=O)Nc1ccccc1F (centres unmarked)", "Plant response rating, Blackgrass": 85}

Field: Plant response rating, Blackgrass. Fill in for each record below.
1. O=C1NC[C@H](c2cccc(C(F)(F)F)c2)[C@H]1C(=O)Nc1ccccc1F
2. CN1CC(c2ccc(C(F)(F)F)cc2)C(C(=O)Nc2cccc(F)c2F)C1=O (centres unmarked)
3. O=C1NCC(c2ccc(F)c(C(F)(F)F)c2)C1C(=O)Nc1cccc(F)c1F (racemic)
4. O=C1NCC(c2ccc(Cl)c(F)c2)C1C(=O)Nc1cccc(F)c1F (centres unmarked)

1: 90; 2: 60; 3: 85; 4: 0

---

System: kochia
experiment-notes: Test A pre-/postemergence herbicide test
Assay type: in vivo, Kochia scoparia
setup-conditions: Postemergence, 500 g ai/ha; 0 to 100 scale (0 no effect, 100 complete control)
parameter: Plant response rating, Kochia

{"compound": "O=C1NCC(c2cccc(OC(F)F)c2)C1C(=O)Nc1ccccc1F (stereo not shown) [Compound 323]", "Plant response rating, Kochia": 90}
{"compound": "O=C1NCC(c2cccc(Oc3ccccc3)c2)C1C(=O)Nc1ccc(F)cc1F (stereo not shown) [Compound 331]", "Plant response rating, Kochia": 20}
{"compound": "O=C1NCC(c2cc(F)cc(F)c2)C1C(=O)Nc1ccccc1Cl (racemic) [Compound 280]", "Plant response rating, Kochia": 0}

Consider the compound O=C1NCC(c2cccc(-n3ccc(C(F)(F)F)n3)c2)C1C(=O)Nc1cccc(F)c1F (stereo not shown) [Compound 326] . State its measured Plant response rating, Kochia.
30

---

Tested on: barnyardgrass
experiment-notes: Test A pre-/postemergence herbicide test
Assay type: in vivo, Echinochloa crus-galli
setup-conditions: Postemergence, 125 g ai/ha; visual rating on 0 to 100 scale (0 no effect, 100 complete control), approx. 10 days
parameter: Plant response rating, Barnyardgrass

Some solved entries appear below for comparison.
{"compound": "CSc1cccc(C2CNC(=O)C2C(=O)Nc2cccc(F)c2F)c1 (stereo not drawn)", "Plant response rating, Barnyardgrass": 50}
{"compound": "O=C1NCC(c2cccc(-n3cccn3)c2)C1C(=O)Nc1ccccc1C(F)(F)F (stereo not drawn)", "Plant response rating, Barnyardgrass": 0}

Now consider a different compound.
Consider the compound O=C1NCC(c2ccc(Br)c(Br)c2)C1C(=O)Nc1ccccc1F (stereo not drawn) . State its measured Plant response rating, Barnyardgrass.
40

---

Answer each item with its documented Plant response rating, Oilseed Rape.
System: oilseed rape
experiment-notes: Test C pre-/postemergence herbicide test
Type: in vivo, Brassica napus
setup-conditions: Preemergence, 125 g ai/ha; scale 0 to 100 (0 no effect, 100 complete control)
Give bare numbers.

{"compound": "Cc1ccccc1NC(=O)C1C(=O)NCC1c1cccc(C(F)(F)F)c1 (racemic)", "assay-result": 5}
{"compound": "O=C1NCC(c2ccc(F)c(F)c2)C1C(=O)Nc1cccc(F)c1F (racemic)", "assay-result": 80}
{"compound": "CN1CC(c2ccc(C(F)(F)F)cc2)C(C(=O)Nc2cccc(F)c2F)C1=O (stereo not shown)", "assay-result": 75}

Consider the compound O=C1NCC(c2cccc(OC(F)F)c2)C1C(=O)Nc1cccc(F)c1F (stereo not shown) . State its measured Plant response rating, Oilseed Rape.
70
